In this section we review reported MFI values for a set of binders.
biological target: T1, HLA-B*2705 heavy chain with human beta 2 microglobulin on splenocytes of HLA-B27/hb2m transgenic mice (human); assay: flow cytometry, HLA-B27/hb2m transgenic mouse splenocytes, antibody 1 ug/ml
T1 construct: whole, on cells; also called TG; HLA-B*27+ transgenic splenocytes
MEASUREMENT_NAME: MFI (MFI)

BINDER | UNIT_NAME | VALUE
H4H2499N (antibody, V domains shown) VH: QVQLVESGGGLVKPGGSLRLSCAASGFTFSDYYMSWIRQAPGKGLEWVSYISTSGSTIYYPDSVKGRFTISRDNAKNSLNLQMNSLRAEDTAVYYCLLHYYYGMDVWGQGTTVTVSS VL: EIVLTQSPATLSLSPGERAPLSCRASQSVSSYLAWYQQKPGQPPRLLIYDASNRATGIPARFSGSGSGTDFTLTISSLEPEDFAVYYCQQRSNWPWTFGQGTKVEIK | MFI | 378
H4H2477N2 (antibody, V domains shown) VH: QVQLQQWGAGLLKPSETLSLTCAVYGGSFSDYYWSWIRQPPGKGLEWIGEINHRGNTNYNPSLKSRVTISVDTSKNQFSLKLRSVTAADMAVYYCARIQLWLRGYDYYGMDVWGQGTTVTVSS VL: DIQMTQSPSSLSASVGDRVTITCRASQGIRNDLGWYQQKPGKAPKRLIYAASSLQGGVPSRFSGSGSGTEFSLTISSLQPEDFASYYCLQHNTYPWTFGQGTKVEIK | MFI | 336
H4H2528P (antibody, V domains shown) VH: QVQLVESGGGVVQPGRSLRLSCAASGFTFSRFGMDWVRQAPGKGLEWVAVISYDGKNKLYADSVKGRFTISRDNSKNTLYLQMNSLRAEDTAVYYCAKEGDNWNFVGDSWGQGTLVTVSS VL: DIQMTQSPSSVSASVGDRVTITCRASQGISARLAWYQQKPGKAPKLLIYAASSLQSGVPSRFSGSGSGTYFTLTISNLQPEDFATYYCQQANSFPYTLGQGTKLEIK | MFI | 831
H4H2718N (antibody, V domains shown) VH: EVQLVESGGGLVQPGRSLRLSCAASGFTFDEYAMHWVRQVPGKGLEWVSGISRNSGTIGYVDSVLGRFTISRDNAKNSLYLQMNSLRPEDTALYYCAKDKGWLLGMDVWGQGTTVTVSS VL: DIQMTQSPSSLSASVGDRVTITCRASQAIRNDLGWYQQKPGKAPKRLIYAASSLQSGVPSRFSGSGSGTEFALTISSLQPEDFATYYCLQYNSYLYTFGQGTKLEIK | MFI | 215
H4H2542P (antibody, V domains shown) VH: EVQLVESGGGLVQPGRSLRLSCAASGFTFDDYAMHWVRQGPGKGLEWVSGISWNGRTMDHADSVKGRFTISRDNAKNSLYLQMNSLRNDDTGVYFCAKEGIPVAGTYFHFYGMDVWGQGTTVTVSS VL: EIVMTQSPATLSVSPGERVTLSCRASQSIGNYLAWYQQKPGQAPRLLIYGTSTRATGIPARFSGSGSGTEFTLTFSSLQSEDFAVYYCQQYNHWPLTFGGGTKVEIK | MFI | 884
H4H2560P (antibody, V domains shown) VH: QVQLVQSGAEVKKPGASVKVSCKASGYTFTGYFIHWVRQAPGQGLEWVGWINPTSGGTNYAQKFQGRVTMTRDTSISTAYMEMNSLRSDDTAVYYCARKAGYTSTWFDYWGQGTTVTVSS VL: DIVMTQSPDSLTVSLGERATINCKSSQSVLYSSKNKNYLAWYQQKPGQPPNLLVYWASTRESGVPDRFSGSGSGTDFTLTISSLQAEDVAVYYCQQYYSMITFGQGTRLEIK | MFI | 618
H4H2490N2 (antibody, V domains shown) VH: QVQLVQSGADVKWPGASVKVSCRASGYTFTGYYMHWVRQAPGQGLEWMGWINPNNGGTNYAQKFQGRVTMTRDTSITTVYMELSSLISDDTAVYYCARGEDLELRNYYYYGMDVWGQGTSVTVSS VL: DIQMTQSPSSLSASVGDRVTITCRASQSISSYLNWYQQKPGKAPKLLIYAASNLQSGVPSRFSGSGFGTDFTLTISSLQSEDFATYYCQQTYSTRTFGRGTKVEIK | MFI | 348
